Read-out: Cytochrome P450 2B6 (Homo sapiens)
Assay: CLD_CYP2B6_48hr: CellzDirect (CLD) Gene Expression Assay for xenobiotic metabolism (CYP2B6) at 48 hours (AID 2283699);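 note: actives raise transcript level above DMSO so potency reflects induction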
Records with an inconclusive call do not appear. Activity calls are given as the source filed them. Rule for the calls: active = hit-call score of the fitted dose curve at least 0.9, where 1 is the maximum; inconclusive = response in the unintended direction; inactive = score below 0.9.
MEASURED ENDPOINT: AC50

MOLECULE: COc1ccc(-c2ccccc2)cc1NNC(=O)OC(C)C
OBSERVED MEASUREMENT: inactive
//
MOLECULE: N#Cc1c(Cl)cccc1Cl
OBSERVED MEASUREMENT: 1.44 µM (active)
//
MOLECULE: CC1(C)CCC(=Cc2ccc(Cl)cc2)C1(O)Cn1cncn1 (configuration not stated)
OBSERVED MEASUREMENT: 4.01 µM (active)
//
MOLECULE: COP(=S)(OC)Oc1ccc([N+](=O)[O-])c(C)c1
OBSERVED MEASUREMENT: 2.67 µM (active)
//
MOLECULE: Cc1nc(N(C)C)nc(OC(=O)N(C)C)c1C
OBSERVED MEASUREMENT: 5.26 µM (active)
//
MOLECULE: CC(C)C1(C)N=C(c2ncccc2C(=O)O)NC1=O (configuration not stated)
OBSERVED MEASUREMENT: 0.000587 µM (active)
//
MOLECULE: CNC(=O)Oc1cccc2ccccc12
OBSERVED MEASUREMENT: 4.42 µM (active)
//
MOLECULE: CC(C)N1C(=O)N(c2ccccc2)CSC1=NC(C)(C)C
OBSERVED MEASUREMENT: 4.31 µM (active)
//
MOLECULE: CCCN(CC)CC1COC2(CCC(C(C)(C)C)CC2)O1 (configuration not stated)
OBSERVED MEASUREMENT: inactive
//
MOLECULE: CCSC(=O)N1CCCCCC1
OBSERVED MEASUREMENT: 0.378 µM (active)
//
MOLECULE: CC(C)NC(=O)N1CC(=O)N(c2cc(Cl)cc(Cl)c2)C1=O
OBSERVED MEASUREMENT: 3.92 µM (active)
//
MOLECULE: CCCCC(O)(Cn1cncn1)c1ccc(Cl)cc1Cl (configuration not stated)
OBSERVED MEASUREMENT: 0.63 µM (active)
//
MOLECULE: CC(C)(C)C(=O)C(Oc1ccc(Cl)cc1)n1cncn1 (configuration not stated)
OBSERVED MEASUREMENT: 3.31 µM (active)
//
MOLECULE: CC(C)Nc1nc(Cl)nc(NC(C)C)n1
OBSERVED MEASUREMENT: 3.11 µM (active)
//
MOLECULE: O=c1n(Cl)c(=O)n(Cl)c(=O)n1Cl
OBSERVED MEASUREMENT: inactive
//
MOLECULE: C=CCOC(=O)C(C)(C)OC(=O)c1cc(-n2c(=O)cc(C(F)(F)F)n(C)c2=O)ccc1Cl
OBSERVED MEASUREMENT: 0.168 µM (active)
//
MOLECULE: COCc1cnc(C2=NC(C)(C(C)C)C(=O)N2)c(C(=O)O)c1 (configuration not stated)
OBSERVED MEASUREMENT: inactive
//
MOLECULE: CCN(CC)C(=O)C(C)Oc1cccc2ccccc12 (configuration not stated)
OBSERVED MEASUREMENT: 6.33 µM (active)
//
MOLECULE: CCNP(=S)(OC)O/C(C)=C/C(=O)OC(C)C (configuration not stated)
OBSERVED MEASUREMENT: 0.598 µM (active)
//
MOLECULE: Clc1cccc(C(Cl)(Cl)Cl)n1
OBSERVED MEASUREMENT: 1.47 µM (active)
//
MOLECULE: N#Cc1c[nH]cc1-c1cccc2c1OC(F)(F)O2
OBSERVED MEASUREMENT: 2.54 µM (active)
//
MOLECULE: CCC(C)n1c(=O)[nH]c(C)c(Br)c1=O (configuration not stated)
OBSERVED MEASUREMENT: 3.28 µM (active)
